B1: ETS1 (parent)
chain: YVRDRADLNKDKPVIPAAALAGYT

# Variants of: B1
# RUN_DESCRIPTION: protein stability index of a GFP-peptide fusion (GPS, HEK-293T) (PSI 1-6); higher = more stable;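 also: lentivirally expressed fusions sorted by FACS into six bins by GFP to DsRed ratio, PSI derived from sequencing read proportions per bin multiplied by bin number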
# CONDITION_CONTEXT: c terminus: a fixed tail appended
Here, each record is paired with measured protein stability index data.
Please state the value as a number alone, without comment.

Some variants with recorded protein stability index:
D11M
2.31
R3W
1.68
R5P
1.72
I15A
2.8
I15P
2.63

Now examine the next entry.
Q. State, in one line, measured protein stability index of T24Q
A. 2.69
